# testedSystem: UniProt P32245
# assayRemarks: High and low density hMC4-R functional assay (cAMP, HEK293-T-REx-MC4-R cells)
# Format: cell-based
# conditionLabel: 10 ng/mL Doxycycline (high density hMC4-R system); NDP-α-MSH = 100%; read-out: Intrinsic Activity (%)
observationType: Emax (%)

molecule	Emax [%]
CC(=O)N[C@@H](CCCNC(=N)N)C(=O)N[C@H]1CCC(=O)NCCC[C@@H](C(N)=O)NC(=O)[C@H](Cc2c[nH]c3ccccc23)NC(=O)[C@H](CCCNC(=N)N)NC(=O)[C@@H](Cc2cccc(Cl)c2)NC(=O)[C@H](CN)NC1=O	89
CC(=O)N[C@@H](CCCNC(=N)N)C(=O)N[C@H]1CCC(=O)NCCC[C@@H](C(N)=O)NC(=O)[C@H](Cc2c[nH]c3ccccc23)NC(=O)[C@H](CCCNC(=N)N)NC(=O)[C@@H](Cc2cccc(Cl)c2)NC(=O)[C@@H]2C[C@@H](O)CN2C1=O	90
CC(=O)N[C@@H](CCCNC(=N)N)C(=O)N[C@H]1CCC(=O)NCCC[C@@H](C(N)=O)NC(=O)[C@H](Cc2c[nH]c3ccccc23)NC(=O)[C@H](CCCNC(=N)N)NC(=O)[C@@H](Cc2ccc(Cl)c(Cl)c2)NC(=O)[C@H](CCN)NC1=O	92
CC(=O)N[C@@H](CCCNC(=N)N)C(=O)N[C@H]1CCC(=O)NCCC[C@@H](C(N)=O)NC(=O)[C@H](Cc2c[nH]c3ccccc23)NC(=O)[C@H](CCCNC(=N)N)NC(=O)[C@@H](Cc2ccccc2Cl)NC(=O)[C@H](CO)NC1=O	98

====

# testedSystem: UniProt:P32245
# assayRemarks: High and low density hMC4-R functional assay (cAMP, HEK293-T-REx-MC4-R cells)
# Type: cell-based
# conditionLabel: 10 ng/mL Doxycycline (high density hMC4-R system)
pEC50: −log10 of the molar value.
observationType: pEC50

P = CC(=O)N[C@@H](CCCNC(=N)N)C(=O)N[C@H]1CCCNC(=O)CC[C@@H](C(N)=O)NC(=O)[C@H](Cc2c[nH]c3ccccc23)NC(=O)[C@H](CCCNC(=N)N)NC(=O)[C@@H](Cc2ccc(F)cc2)NC(=O)[C@H](CC(N)=O)NC1=O [Example 70]
Q = CC(=O)N[C@@H](CCCNC(=N)N)C(=O)N[C@H]1CCC(=O)NCCC[C@@H](C(N)=O)NC(=O)[C@H](Cc2c[nH]c3ccccc23)NC(=O)[C@H](CCCNC(=N)N)NC(=O)[C@@H](Cc2cccc([N+](=O)[O-])c2)NC(=O)[C@H](CCN)NC1=O [Example 23]
Data request: // pick min by pEC50: P , Q // respond with label for picked entry
Data returned: Q
(Q: 9.26, P: 10.00)

====

# testedSystem: hMC4-R (Homo sapiens (Human), UniProt P32245)
# Sequence (P32245 whole entry): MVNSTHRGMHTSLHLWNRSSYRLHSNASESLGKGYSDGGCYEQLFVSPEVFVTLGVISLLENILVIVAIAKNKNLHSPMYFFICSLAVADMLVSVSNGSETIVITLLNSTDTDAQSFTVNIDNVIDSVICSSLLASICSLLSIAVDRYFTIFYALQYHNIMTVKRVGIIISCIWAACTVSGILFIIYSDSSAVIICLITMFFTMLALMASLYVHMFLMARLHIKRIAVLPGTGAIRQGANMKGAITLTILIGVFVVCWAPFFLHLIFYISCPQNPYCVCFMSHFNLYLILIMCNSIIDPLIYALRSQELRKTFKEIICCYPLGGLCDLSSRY
# assayRemarks: Competitive inhibition binding assay using [I125]-NDP-α-MSH, hMC4-R
# conditionLabel: membranes of HEK-293 cells expressing recombinant hMC4-R, read-out: MC4-R Ki
observationType: Ki (nM)

molecule	Ki (nM)
CC(=O)N[C@@H](CCCNC(=N)N)C(=O)N[C@H]1CCCNC(=O)CC[C@@H](C(N)=O)NC(=O)[C@H](Cc2c[nH]c3ccccc23)NC(=O)[C@H](CCCNC(=N)N)NC(=O)[C@@H](Cc2ccc(C#N)cc2)NC(=O)[C@H](CC(N)=O)NC1=O	4

A = CC(=O)N[C@@H](CCCNC(=N)N)C(=O)N[C@H]1CCC(=O)NCCC[C@@H](C(N)=O)NC(=O)[C@H](Cc2c[nH]c3ccccc23)NC(=O)[C@H](CCCNC(=N)N)NC(=O)[C@@H](Cc2cc(F)c(F)c(F)c2)NC(=O)[C@H](CC(N)=O)NC1=O
B = CC(=O)N[C@@H](CCCNC(=N)N)C(=O)N[C@H]1CCC(=O)NCCC[C@@H](C(N)=O)NC(=O)[C@H](Cc2c[nH]c3ccccc23)NC(=O)[C@H](CCCNC(=N)N)NC(=O)[C@@H](Cc2ccccc2Cl)NC(=O)[C@H](CO)NC1=O
C = CC(=O)N[C@@H](CCCNC(=N)N)C(=O)N[C@H]1CCC(=O)NCCC[C@@H](C(N)=O)NC(=O)[C@H](Cc2c[nH]c3ccccc23)NC(=O)[C@H](CCCNC(=N)N)NC(=O)[C@@H](Cc2ccccc2Cl)NC(=O)[C@H](Cc2cccc(C(N)=O)c2)NC1=O
Data request: Task field, ranking: reported Ki, descending order. Rank them, then answer with their labels in that order.
Data returned: C, B, A
(C: 15 nM, B: 8 nM, A: 3 nM)
